Where a name gives a salt, the structure may show the parent alone.
Quick record: IC50, 3-hydroxy-3-methylglutaryl coenzyme A reductase (Rattus norvegicus).
reported_property: IC50 (nM)

Worked examples, 3 compounds total:
- compound: "CC1=CC(OC(=O)[C@@H]2CCC(=O)N2)CC(C)(C)C1 (some centres unmarked)"
  IC50 / nM: 130
- compound: "CC1CC(OC(=O)[C@@H]2CCC(=O)N2)CC(C)(C)C1 (single isomer, unassigned) [Example IV, 3,3,5-TRIMETHYLCYCLOHEXYL PYROGLUTAMATE]"
  IC50 / nM: 150
- compound: "O=C1CC[C@@H](C(=O)OC2CCCCC2)N1 [Example VIII, L-Pyroglutamate of cyclohexanol]"
  IC50 / nM: 550

P. CC1CCCC(C)C1OC(=O)[C@@H]1CCC(=O)N1 (some centres unmarked)
Q. CC1CC(OC(=O)[C@@H](N)CCC(N)=O)CC(C)(C)C1 (some centres unmarked) [Example V, hydrochloride]
Query: Given the listed items, does P or Q have the lesser reported IC50? Your answer should be the label of the entry you select.
Reply: Q
(Q: 80 nM, P: 400 nM)

====

Target: 3-hydroxy-3-methylglutaryl coenzyme A reductase (Rattus norvegicus, UniProt P51639)
Sequence (P51639 whole entry): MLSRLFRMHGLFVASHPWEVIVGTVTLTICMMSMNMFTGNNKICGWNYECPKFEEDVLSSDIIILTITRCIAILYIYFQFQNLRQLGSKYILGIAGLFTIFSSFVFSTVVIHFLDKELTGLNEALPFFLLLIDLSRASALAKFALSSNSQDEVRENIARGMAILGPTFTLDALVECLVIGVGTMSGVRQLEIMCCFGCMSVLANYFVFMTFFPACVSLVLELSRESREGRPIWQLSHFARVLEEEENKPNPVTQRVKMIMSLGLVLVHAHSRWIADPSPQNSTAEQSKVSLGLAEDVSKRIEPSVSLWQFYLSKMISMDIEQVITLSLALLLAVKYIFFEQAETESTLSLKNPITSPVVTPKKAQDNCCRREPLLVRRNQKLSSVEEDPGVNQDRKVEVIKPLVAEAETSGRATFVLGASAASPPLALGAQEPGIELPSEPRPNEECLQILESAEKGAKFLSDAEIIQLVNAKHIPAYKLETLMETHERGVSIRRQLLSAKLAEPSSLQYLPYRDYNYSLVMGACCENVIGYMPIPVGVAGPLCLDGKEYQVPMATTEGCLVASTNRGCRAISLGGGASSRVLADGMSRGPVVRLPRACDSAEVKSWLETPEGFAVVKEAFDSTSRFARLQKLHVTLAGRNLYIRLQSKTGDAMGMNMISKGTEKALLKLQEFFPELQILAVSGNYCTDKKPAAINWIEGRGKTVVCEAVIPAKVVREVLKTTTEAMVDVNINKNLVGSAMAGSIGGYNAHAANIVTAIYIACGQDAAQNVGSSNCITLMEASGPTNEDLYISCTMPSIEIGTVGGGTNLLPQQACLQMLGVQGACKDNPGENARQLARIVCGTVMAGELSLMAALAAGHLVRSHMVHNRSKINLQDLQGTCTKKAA
Structures can show the parent of a compound that is named as a salt.
reported_property: IC50 (nM)

a. CC1CC(OC(=O)[C@@H](N)CCC(=O)O)CC(C)(C)C1 (stereo partly shown) [Example VI, HYDROCHLORIDE]
b. CC1=CCC(C(C)(C)OC(=O)[C@@H]2CCC(=O)N2)CC1 (stereo partly drawn) [Example XIV, L-Pyroglutamate of terpineol]
c. CC1=CCC(OC(=O)[C@@H]2CCC(=O)N2)(C(C)C)CC1 (stereo partly drawn) [Example XIII, L-Pyroglutamate of terpin-4-enol]
d. CC1(OC(=O)[C@@H]2CCC(=O)N2)CCCC1 [Example XII, L-Pyroglutamate of 1-methylcyclopentanol]
Query: Going from lowest to highest recorded IC50, rank the entries listed above. Lab note: final answer is the ordered label list.
Reply: a, c, b, d
(a: 120 nM, c: 210 nM, b: 300 nM, d: 600 nM)
